Tested on: ABHD11
Assay: LYPLA1/LYPLA2 inhibition and hydrolase selectivity, late-stage follow-up, selectivity assay for LYPLA1/LYPLA2 dual inhibitor project, biochemical, gel-based ABPP, fluorescence, proteome (AID 493111)
Details: fluorophosphonate-rhodamine competition, at 1.5 µM (top of the series)
Calls of active or inactive are those of the source. No rule for the calls is given here.
Reported inhibition by item:

Exam item: Consider the compound shown here: `CC(C)(O)c1cnn(C(=O)N2CCC(C(C)(C)C)CC2)n1` What is its recorded inhibition?
Marked response: 100% (inactive)

Exam item: Consider the compound shown here: `O=C(N1CCC(Cc2ccccc2)CC1)n1ncc(C(O)(c2ccccc2)c2ccccc2)n1` What is its recorded inhibition?
Marked response: 100%

====

Tested on: APEH
Assay: LYPLA1/LYPLA2 inhibition and hydrolase selectivity, late-stage follow-up, selectivity assay for LYPLA1/LYPLA2 dual inhibitor project, biochemical, gel-based ABPP, fluorescence, proteome (AID 493111)
Details: fluorophosphonate-rhodamine competition, at 1.5 µM (top of the series)
Reported property: inhibition (%)
The answer is to be given in %; state only the numeric part.

Worked examples follow.
O=C(N1CCCCC1)n1ncc(C(O)c2ccccc2)n1 (configuration not stated) :: 0
O=C(N1CCCCC1)n1ncc(C(O)(c2ccccc2)c2ccccc2)n1 :: 50
CC1CCN(C(=O)n2ncc(C(O)(c3ccccc3)c3ccccc3)n2)CC1 :: 100
O=C(N1CCOCC1)n1ncc(C(O)(c2ccccc2)c2ccccc2)n1 :: 50
O=C(N1CCCCC1)n1ncc(-c2ccc(Oc3ccccc3)cc2)n1 :: 0

Exam item: Consider the compound shown here: `CC(C)(C)C1CCN(C(=O)n2ncc(C3(O)CCCCC3)n2)CC1` What is its recorded inhibition?
Marked response: 0

Exam item: Consider the compound shown here: `O=C(N1CCC(Cc2ccccc2)CC1)n1ncc(C(O)(c2ccccc2)c2ccccc2)n1` What is its recorded inhibition?
Marked response: 0

Exam item: Consider the compound shown here: `CC(C)(C)C1CCN(C(=O)n2ncc(C(O)(c3ccccc3)c3ccccc3)n2)CC1` What is its recorded inhibition?
Marked response: 0

====

Tested on: ESD
Assay: LYPLA1/LYPLA2 inhibition and hydrolase selectivity, late-stage follow-up, selectivity assay for LYPLA1/LYPLA2 dual inhibitor project, biochemical, gel-based ABPP, fluorescence, proteome (AID 493111)
Details: fluorophosphonate-rhodamine competition, at 1.5 µM (top of the series)
Activity calls are given as the source filed them. The rule behind the calls is not given here.
Write down one outcome, taken from true (1) for active, false (0) for inactive

O=C(N1CCCCC1)n1ncc(-c2ccc(Oc3ccccc3)cc2)n1 :: true (1)
O=C(N1CCOCC1)n1ncc(-c2ccc(OC(F)(F)F)cc2)n1 :: false (0)

Exam item: // return assay outcome for `O=C(N1CCCCC1)n1ncc(C(O)(c2ccccc2)c2ccccc2)n1`
Marked response: true (1)

Exam item: // return assay outcome for CCC1CCCCN1C(=O)n1ncc(C(O)(c2ccccc2)c2ccccc2)n1 (configuration not stated)
Marked response: false (0)

Exam item: // return assay outcome for `O=C(N1CCC(Cc2ccccc2)CC1)n1ncc(C(O)(c2ccccc2)c2ccccc2)n1`
Marked response: false (0)

Exam item: // return assay outcome for `CC(C)(C)C1CCN(C(=O)n2ncc(C3(O)CCCCC3)n2)CC1`
Marked response: false (0)

Exam item: // return assay outcome for `O=C(N1CCOCC1)n1nnc2ccccc21`
Marked response: false (0)

====

Tested on: APEH
Test: LYPLA1/LYPLA2 inhibition and hydrolase selectivity, late-stage follow-up, selectivity assay for LYPLA1/LYPLA2 dual inhibitor project, biochemical, gel-based ABPP, fluorescence, proteome (AID 493111)
Conditions: fluorophosphonate-rhodamine competition, at 1.5 µM (top of the series)
Reported property: inhibition (%)
The answer is to be given in %; state only the numeric part.

Worked examples follow.
O=C(N1CCOCC1)n1ncc(-c2cc(F)cc(F)c2)n1 :: 100
CCC1CCCCN1C(=O)n1ncc(C(O)(c2ccccc2)c2ccccc2)n1 (centres undefined) :: 50
O=C(N1CCC(C(O)(c2ccccc2)c2ccccc2)CC1)n1ncc(C(O)(c2ccccc2)c2ccccc2)n1 :: 0

Proceed to the following item.
Exam item: Consider the compound shown here: `COc1ccc2cc(-c3cnn(C(=O)N4CCCCC4)n3)ccc2c1` What is its recorded inhibition?
Marked response: 75
